Field: half-life. Provide a value for each of the compounds that follow.
# protocol description: Metabolic stability in rat liver microsomes (RLMs)
# measurement context: rat, microsomes, Metabolic stability: Half life T1/2 (min), RLMs; mean and SD, three measurements
Write down the numeric answer in min and omit the unit.

Recorded half-life for CC(C)[C@@H]1NC(=O)[C@@H](NC(=O)c2ccc(Cl)s2)CNC(=O)CCSCc2cccc(n2)CSCCNC1=O [compound 19] , please?
53

Would you mind telling me what half-life value was observed for O=C1C[C@@H]2CCCN2C(=O)[C@@H](NC(=O)c2cccc(Cl)c2)CSCc2cccc(n2)CSCCNC(=O)[C@H](Cc2c[nH]c3ccccc23)N1 [compound 7] ?
31

Please look up its half-life: C[C@@H]1NC(=O)[C@@H](NC(=O)c2ccc(Cl)s2)CSCc2cccc(n2)CSCCNC(=O)c2ccc(cc2)CNC1=O [compound 26]
13.7

Data request, read-out half-life, for O=C(N[C@H]1CSCc2cccc(n2)CSCCNC(=O)[C@H](Cc2ccccn2)NC(=O)C2(CCCC2)NC1=O)c1ccc(Cl)s1 [compound 28]
16.4

Item COc1ccc(CC(=O)N[C@H]2Cc3ccc(cc3)CNC(=O)c3cccc(c3)CNC(=O)CCSCc3ccc(cc3)CSCCNC2=O)cc1OC [peptide 3] has what recorded half-life?
16.9

---

# tested target: porcine pepsin (Sus scrofa)
# Construct: 0.32 g of porcine pepsin (Sigma-Aldrich, P7125) was dissolved under gentle agitation; purchased Sigma-Aldrich P7125
# Sequence (P00791 60-385): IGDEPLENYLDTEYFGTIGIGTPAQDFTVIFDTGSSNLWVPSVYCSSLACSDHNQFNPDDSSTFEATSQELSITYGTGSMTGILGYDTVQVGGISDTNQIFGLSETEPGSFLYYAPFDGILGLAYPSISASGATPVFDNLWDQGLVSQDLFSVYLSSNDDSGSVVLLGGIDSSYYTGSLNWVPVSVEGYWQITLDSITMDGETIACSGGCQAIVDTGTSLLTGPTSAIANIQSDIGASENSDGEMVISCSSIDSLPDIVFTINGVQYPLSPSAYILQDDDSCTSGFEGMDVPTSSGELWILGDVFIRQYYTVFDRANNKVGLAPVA
# protocol description: Peptide stability in simulated gastric fluid (SGF)
# Type: in vitro ADME
# measurement context: after 8 h vs 0 h (TIC); average of R1-R3
Is SGF stability, Residual peptide Average at least 100? Then 1.0. If not, 0.0.

Please indicate if the recorded SGF stability, Residual peptide Average for O=C1C[C@H]2CCCN2C(=O)[C@H](Cc2ccccc2)NC(=O)[C@@H](NC(=O)c2ccc(Cl)s2)CCCSC/C=C/CSCCN1 meets or exceeds 100.
0.0

Would you say CC(C)[C@@H]1NC(=O)[C@@H](NC(=O)c2ccc(Cl)s2)CNC(=O)CCSCc2cccc(n2)CSCCNC1=O shows SGF stability, Residual peptide Average at minimum 100?
0.0

Hi team, for C[C@@H]1NC(=O)[C@@H](NC(=O)c2ccc(Cl)s2)CSCc2cccc(n2)CSCCNC(=O)[C@H]2CCCN(C2)C1=O , is the recorded SGF stability, Residual peptide Average at or above 100?
0.0

In plain terms: is recorded SGF stability, Residual peptide Average at least 100 for CN1CCC(=O)NCCSCCS(=O)(=O)CCSC[C@H](NC(=O)c2ccc(Cl)s2)C(=O)N[C@@H](Cc2ccccc2)C1=O ?
0.0

Please indicate if the recorded SGF stability, Residual peptide Average for O=C1CC2CCN(CC2)C(=O)[C@H](Cc2ccccc2)NC(=O)[C@@H](NC(=O)c2ccc(Cl)s2)CSCCS(=O)(=O)CCSCCN1 meets or exceeds 100.
1.0

Check the entry O=C1C[C@H]2CCCN2C(=O)[C@H](Cc2ccccc2)NC(=O)[C@@H](NC(=O)c2ccc(Cl)s2)CSC/C=C/CSCCN1 [peptide 32] : does SGF stability, Residual peptide Average equal or exceed 100?
1.0

// inclusive: SGF stability, Residual peptide Average at least 100? input: O=C1CSCCC[C@H](NC(=O)c2ccc(Cl)s2)C(=O)N[C@@H](Cc2ccccc2)C(=O)N2CCC[C@@H]2CC(=O)NCCSC1
1.0

Would you say O=C(N[C@H]1CSCc2cccc(n2)CSCCNC(=O)[C@H](Cc2ccccn2)NC(=O)C2(CCCC2)NC1=O)c1ccc(Cl)s1 shows SGF stability, Residual peptide Average at minimum 100?
0.0

---

# protocol description: Passive artificial membrane permeability (PAMPA)
# measurement context: 50 μM, 12–18 h; acceptor concentration relative to equilibrium
Record form. Attribute: PAMPA permeability: % permeability. Fill in for each entry.
Respond numerically; units are % and should not be typed.

I would be grateful if you could share the reported PAMPA permeability: % permeability for O=C1C[C@H]2CCCN2C(=O)[C@H](Cc2ccccc2)NC(=O)[C@@H](NC(=O)c2ccc(Cl)s2)CCC=CCCN1 .
70

Which PAMPA permeability: % permeability value belongs to O=C1CCSC/C=C/CSCCNC(=O)[C@H](CNC(=O)c2ccc(Cl)s2)NC(=O)[C@H](Cc2ccccn2)N1 ?
16

Given the entry O=C(N[C@H]1CSCc2cccc(n2)CSCCNC(=O)[C@H](Cc2c[nH]cn2)NC(=O)C2(CCCC2)NC1=O)c1ccc(Cl)s1 , report its measured PAMPA permeability: % permeability.
0.16

Consider the molecule shown here: O=C1C[C@H]2CCCN2C(=O)[C@H](Cc2ccccc2)NC(=O)[C@@H](NC(=O)c2ccc(Cl)s2)CCSC/C=C/CSCCN1 What is its recorded PAMPA permeability: % permeability?
37

---

Give Residual thrombin activity: Top sample for every item shown.
# tested target: UniProt:P00734
# protocol description: Sub-library screen for active and permeable cyclic peptides (PAMPA plus thrombin inhibition)
# Assay type: biochemical
# measurement context: PAMPA acceptor well after 14 h, 5 μM donor; crude; slopes normalized to DMSO
Enter a number only.

Entry O=C1CSCCNC(=O)C[C@H]2CCCN2C(=O)[C@H](Cc2ccc(C(F)(F)F)cc2)NC(=O)[C@@H](NC(=O)c2ccc(Cl)s2)CSC1 : reported Residual thrombin activity: Top sample = ?
100.3

Return reported Residual thrombin activity: Top sample; argument: N#Cc1ccc(C[C@@H]2NC(=O)[C@@H](NC(=O)c3ccc(Cl)s3)CCSCC(=O)CSCCNC(=O)C[C@H]3CCCN3C2=O)cc1
103.0

Look up Residual thrombin activity: Top sample for this compound: O=C1C[C@H]2CCCN2C(=O)[C@H](Cc2ccccc2)NC(=O)[C@@H](NC(=O)c2ccc(Cl)s2)CCSCc2cccc(c2)CSCCN1
90.5

---

# tested target: UniProt P00734
# protocol description: Sub-library screen for active and permeable cyclic peptides (PAMPA plus thrombin inhibition)
# Type: biochemical
# measurement context: PAMPA acceptor well after 14 h, 5 μM donor; crude; slopes normalized to DMSO
result type: Residual thrombin activity: Top sample
Answer using only a numeral; do not append any unit.

Look up Residual thrombin activity: Top sample for this compound: N#Cc1ccc(C[C@@H]2NC(=O)[C@@H](NC(=O)c3ccc(Cl)s3)CCSCc3ccccc3CSCCNC(=O)C[C@H]3CCCN3C2=O)cc1
90.0

State the recorded Residual thrombin activity: Top sample for this entry: O=C1C[C@H]2CCCN2C(=O)[C@H](Cc2ccc(Cl)cc2)NC(=O)[C@@H](NC(=O)c2ccc(Cl)s2)CSCc2cccc(n2)CSCCN1
93.9

Which Residual thrombin activity: Top sample is reported for this compound? O=C1CSCCNC(=O)C[C@H]2CCCN2C(=O)[C@@H](Cc2ccccc2)NC(=O)[C@@H](NC(=O)c2ccc(Cl)s2)CSC1
96.8

If you can, please state the reported Residual thrombin activity: Top sample value of CN1C(=O)[C@@H](NC(=O)c2ccc(Cl)s2)CSC/C=C/CSCCNC(=O)C[C@H]2CCCN2C(=O)[C@@H]1Cc1ccccc1 .
95.6

Residual thrombin activity: Top sample for N#Cc1ccc(C[C@@H]2NC(=O)[C@@H](NC(=O)c3ccc(Cl)s3)CSCc3cccc(c3)CSCCNC(=O)C[C@H]3CCCN3C2=O)cc1 ?
102.4

Quick one: Residual thrombin activity: Top sample of O=C1C[C@H]2CCCN2C(=O)[C@H](Cc2ccccc2)NC(=O)[C@@H](NC(=O)c2ccc(Cl)s2)CSCc2ccccc2CSCCN1 ?
82.2

---

# protocol description: Peptide stability in simulated intestinal fluid (SIF)
# Assay type: in vitro ADME, porcine
# measurement context: simulated gi fluid; 8 h, 37 °C, pH 6.8; read-out: Proteolytic stability: SIF (8 h) % remaining
result type: remaining at 8 h (%)
Respond numerically; units are % and should not be typed.

Please report the recorded remaining at 8 h for O=C1CC2CCN(CC2)C(=O)[C@H](Cc2ccccc2)NC(=O)[C@@H](NC(=O)c2ccc(Cl)s2)CSCCS(=O)(=O)CCSCCN1 .
96

Given C[C@@H]1NC(=O)[C@@H](NC(=O)c2ccc(Cl)s2)CSCc2cccc(n2)CSCCNC(=O)c2ccc(cc2)CNC1=O , state its recorded remaining at 8 h.
88

Which measured remaining at 8 h value corresponds to CC(C)[C@@H]1NC(=O)[C@@H](NC(=O)c2ccc(Cl)s2)CNC(=O)CCSCc2cccc(n2)CSCCNC1=O ?
62

Which measured remaining at 8 h value corresponds to O=C1C[C@H]2CCCN2C(=O)[C@H](Cc2ccccc2)NC(=O)[C@@H](NC(=O)c2ccc(Cl)s2)CSCCS(=O)(=O)CCSCCN1 [peptide 11] ?
14

Requested field: remaining at 8 h. Item: O=C1C[C@H]2CCCN2C(=O)[C@H](Cc2ccccc2)NC(=O)[C@@H](NC(=O)c2ccc(Cl)s2)CCSC/C=C/CSCCN1
63

Name the recorded remaining at 8 h for O=C1CSCCC[C@H](NC(=O)c2ccc(Cl)s2)C(=O)N[C@@H](Cc2ccccc2)C(=O)N2CCC[C@@H]2CC(=O)NCCSC1 .
83

Dear colleague, I am looking for the recorded remaining at 8 h of the following compound: C[C@@H]1NC(=O)[C@@H](NC(=O)c2ccc(Cl)s2)CSCc2cccc(n2)CSCCNC(=O)[C@H]2CCCN(C2)C1=O
98

remaining at 8 h lookup needed for O=C1NCCSCc2cccc(n2)CSCCC(=O)N2CCC[C@H]2C(=O)N2CCN(C(=O)c3ccc(Cl)s3)CC12 (some centres unmarked) , thanks.
91

Please give the measured remaining at 8 h for this compound: O=C(N[C@H]1CSCc2cccc(n2)CSCCNC(=O)[C@H](Cc2c[nH]cn2)NC(=O)C2(CCCC2)NC1=O)c1ccc(Cl)s1
92

Consider the compound O=C1CCSCc2cccc(n2)CSCCNC(=O)C2CN(C(=O)c3ccc(Cl)s3)CCN2C(=O)[C@H](CO)N1 (some centres unmarked) and give its measured remaining at 8 h.
95

Which value of remaining at 8 h has been reported for O=C1C[C@H]2CCCN2C(=O)[C@H](Cc2ccccc2)NC(=O)[C@@H](NC(=O)c2ccc(Cl)s2)CSC/C=C/CSCCN1 [peptide 32] in the records?
82
